The measured values listed here are drawn from ChEMBL document CHEMBL1123559.

- system_under_test: Phenylethanolamine N-methyltransferase (Bos taurus)
- Sequence (P10938 whole entry): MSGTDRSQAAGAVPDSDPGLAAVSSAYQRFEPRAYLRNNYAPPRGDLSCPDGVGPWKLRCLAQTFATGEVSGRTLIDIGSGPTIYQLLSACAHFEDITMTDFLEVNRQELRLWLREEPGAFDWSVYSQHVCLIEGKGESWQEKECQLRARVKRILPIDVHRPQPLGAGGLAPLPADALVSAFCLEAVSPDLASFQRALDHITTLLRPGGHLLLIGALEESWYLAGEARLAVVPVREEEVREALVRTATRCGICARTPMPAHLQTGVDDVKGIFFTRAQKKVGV
measure_name: Ki

N[C@@H]1CC2CC1c1c(O)cccc12 (stereo partly specified)
> 3000 µM
N[C@@H]1CC2CC1c1cccc(O)c12 (stereo partly specified)
> 10000 µM
COc1cccc2c1C1CC2[C@H](N)C1 (stereo partly specified)
> 2000 µM

Batch request: Ki per item, same order as input.
1. COc1ccc2c(c1)C1CC2C[C@H]1N (stereo partly specified)
2. COc1cccc2c1C1CC2C[C@H]1N (stereo partly specified)
3. N[C@H]1C2CCC1c1c(O)cccc12 (stereo partly specified)

1. > 2000 µM
2. > 2000 µM
3. > 4000 µM
